Field: inhibition at 10 min, 100 µM. Provide a value for each of the compounds that follow.
- Test system: GST (glutathione S-transferase)
- assay_protocol: Inhibition of GST in Mus musculus (mouse) liver using CDNB as substrate at 100 uM after 10 min by spectrophotometric analysis relative to control
- Format: tissue-based
- cond: probe CDNB
One number for each entry, in %.

Example cases with answers are listed next.
CCCCc1ccc(N2C(=O)CC([C@H]3O[C@@H]4OC(C)(C)O[C@@H]4[C@H]3OC)N(Cc3ccccc3)C2=O)cc1 (some centres undefined); 13
CO[C@@H]1[C@H]2OC(C)(C)O[C@H]2O[C@@H]1C1CC(=O)N(c2ccc(Br)cc2)C(=O)N1c1ccco1 (some centres undefined); 32
CO[C@@H]1[C@H]2OC(C)(C)O[C@H]2O[C@@H]1C1CC(=O)N(c2cccc(C(C)=O)c2)C(=O)N1Cc1ccc(Br)cc1 (some centres undefined); 27
CO[C@@H]1[C@H]2OC(C)(C)O[C@H]2O[C@@H]1C1CC(=O)N(c2cccc(C#N)c2)C(=O)N1Cc1ccccc1 (some centres undefined); 32
CCOc1ccc(N2C(=O)CC([C@H]3O[C@@H]4OC(C)(C)O[C@@H]4[C@H]3OC)N(c3ccco3)C2=O)cc1 (some centres undefined); 26
CO[C@@H]1[C@H]2OC(C)(C)O[C@H]2O[C@@H]1C1CC(=O)N(c2cccc(C#N)c2)C(=O)N1Cc1ccc(Br)cc1 (some centres undefined); 19
CCOC(=O)CC(C1O[C@H]2OC(C)(C)O[C@H]2[C@@H]1OC)N(Cc1ccccc1O)C(=O)Nc1cccc(C(C)=O)c1 (some centres undefined); 23
COc1ccc(CN2C(=O)N(c3cccc(C#N)c3)C(=O)CC2[C@H]2O[C@@H]3OC(C)(C)O[C@@H]3[C@H]2OC)cc1 (some centres undefined); 20

Turning now to a further compound:
Consider the compound COc1ccc(CN2C(=O)N(c3cccc(C(C)=O)c3)C(=O)CC2[C@H]2O[C@@H]3OC(C)(C)O[C@@H]3[C@H]2OC)cc1 (some centres undefined) . State its measured inhibition at 10 min, 100 µM. 41
